# credit: paper PMC3522052

Molecular target: HLA-DRB1*04:01 (Homo sapiens, UniProt P01903+P01911, A100K/A169T/F76Y/I96L/K127E/L162R/M171V/N62H/P40V/Q125Y/R42H/S133A/S149N/S66Y/V115G/V209L/W38E)
Construct: endogenous in cells
Assay: Peptide/MHC-binding assay, competitive ELISA against biotinylated HA306-318
Settings: relative binding activity; competitive ELISA, pH 6.0, 24 h at 37°C; two independent experiments
Note to self: values exactly at 20 are Fulfilled. So ratio of IC50 of Art v 1-peptides/HA306-318, HLA-DR4 at or above 20 is Fulfilled, below is Not fulfilled.

Some solved cases for reference:
{"PRIMARY SEQUENCE": "KCIEWEKAQAGA [Ala-34, mono-substituted peptide of Art v 1_25-36]", "CAT": "Not fulfilled"}
{"PRIMARY SEQUENCE": "CDKKCIEWEKAQ [Art v 1_22-33]", "CAT": "Fulfilled"}
{"PRIMARY SEQUENCE": "KCIEWAKAQHGA [Ala-30, mono-substituted peptide of Art v 1_25-36]", "CAT": "Fulfilled"}
{"PRIMARY SEQUENCE": "KAIEWEKAGHGA [Ala-26, mono-substituted peptide of Art v 1_25-36]", "CAT": "Not fulfilled"}
{"PRIMARY SEQUENCE": "KCIEWEKGQHGA [Gly-32, mono-substituted peptide of Art v 1_25-36]", "CAT": "Fulfilled"}

In plain terms: is recorded ratio of IC50 of Art v 1-peptides/HA306-318, HLA-DR4 at least 20 for KCAEWEKAQHGA [Ala-27, mono-substituted peptide of Art v 1_25-36] ?
Fulfilled

In plain terms: is recorded ratio of IC50 of Art v 1-peptides/HA306-318, HLA-DR4 at least 20 for KCIAWEKAQHGA [Ala-28, mono-substituted peptide of Art v 1_25-36] ?
Not fulfilled
